Reference source for all entries: PubChem BioAssay AID1963958

# Tested on: MDA-MB-231 multicell spheroids, viability
# TEST METHOD NOTES: Anticancer human tumor MDA-MB-231 cell line growth inhibition [PI3K];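 note: spheroids exposed to agents for seven days before reading; percent of vehicle control luminescence with DMSO treated spheroids as 100%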
# COND: second compound 3.16 µM; first compound 0.001 µM; hits give low values
MEASURED PROPERTY: viability, T/C (%)
Just the number in %, nothing appended.

Example entries begin here.
COMPOUND	MEASURED ON	viability, T/C [%]
Cn1ncnc1[C@H]1c2n[nH]c(=O)c3cc(F)cc(c23)N[C@@H]1c1ccc(F)cc1 + CC(Nc1ncnc2nc[nH]c12)c1cc2cccc(Cl)c2c(=O)n1-c1ccccc1	MDA-MB-231 multicell spheroids, viability	60.9
CC(C)n1nc(-c2ccc3oc(N)nc3c2)c2c(N)ncnc21 + Cc1nc(NC(=O)N2CCCC2C(N)=O)sc1-c1ccnc(C(C)(C)C(F)(F)F)c1	MDA-MB-231 multicell spheroids, viability	63.2
CC(C)n1nc(-c2ccc3oc(N)nc3c2)c2c(N)ncnc21 + CC(Nc1ncnc2nc[nH]c12)c1cc2cccc(Cl)c2c(=O)n1-c1ccccc1	MDA-MB-231 multicell spheroids, viability	64.9
CC(=O)c1c(C)c2cnc(Nc3ccc(N4CCNCC4)cn3)nc2n(C2CCCC2)c1=O + Cc1nc(NC(=O)N2CCCC2C(N)=O)sc1-c1ccnc(C(C)(C)C(F)(F)F)c1	MDA-MB-231 multicell spheroids, viability	66.6

Ask: Return reported viability, T/C; argument: Cn1ncnc1[C@H]1c2n[nH]c(=O)c3cc(F)cc(c23)N[C@@H]1c1ccc(F)cc1 + Cc1nc(NC(=O)N2CCCC2C(N)=O)sc1-c1ccnc(C(C)(C)C(F)(F)F)c1
Result: 63.4

Ask: Return reported viability, T/C; argument: CC(=O)c1c(C)c2cnc(Nc3ccc(N4CCNCC4)cn3)nc2n(C2CCCC2)c1=O + CC(Nc1ncnc2nc[nH]c12)c1cc2cccc(Cl)c2c(=O)n1-c1ccccc1
Result: 60.1
